List of yeast fitness values.
B1: tRNA (parent)
chain: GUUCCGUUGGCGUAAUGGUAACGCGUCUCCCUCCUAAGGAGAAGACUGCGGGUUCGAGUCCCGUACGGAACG

Variants of: B1
Assay method text: yeast fitness relative to wild type (ratio to wild type); higher = fitter; tRNA-Arg(CCU), competitive growth, 37 C, YPD
Fewer inactive variants are shown than the library holds.
// print number alone

Known yeast fitness results, listed for orientation:
GUUCCGUUGGCGUAAUGGUAACGCGUCUCCCUCCUUAGGAGAAGCCUGGGGGUUCGAGUCCCGUACGGAACG [A36U A45C C49G]
0.704
GUUCCGUUGGCGUAAUGGUAACGCGUCUCCCUCCUAAGGAGAAGACUGCGGGUUCGAGUGCCGUACGGUACG [C60G A69U]
0.655
GUUCCGUUGGCGUAAUGGUAACGCGUCUCCCUCCUAAGGAGAAGACUGCGGCUUCGAGUCCCGUACGGUACG [G52C A69U]
0.707

Any idea what yeast fitness was measured for GCUCCGUUGGCGUAAUGGUAACGCGUCUCCCUCCUAAGGAGAAGACUGCGGGUACGAGUCCCGUACGGAACG [U2C U54A] ?
0.612

Any idea what yeast fitness was measured for GUUUCGUUGGCGUAAUGGUUACGCGUCUCCCUCCUAAGGAGAAGAAUGCGGGUUCGAGUCCCGUACGGAACG [C4U A20U C46A] ?
1.02

Any idea what yeast fitness was measured for GUUCCGUUGGAGUAAUGGUAACGCGUCUCCCUGCUAAGGAGACGACUGCGGGUUCGAGUCCCGUACGAAACG [C11A C33G A43C G68A] ?
0.61

Any idea what yeast fitness was measured for GUUCCGUUGGCGUAACGGUAACGCGACUCCCUCCUAAGGAGAAGACUGCGGGUUCGAGUCCCGUACCGAACG [U16C U26A G67C] ?
0.657

Any idea what yeast fitness was measured for GUUCCGUUGGUGUAGUGGUAACGCGUCUCCCUCCUAAGGAGAUGACUGCGGGUUCGAGUCCCGUACGGAACG [C11U A15G A43U] ?
0.666

Any idea what yeast fitness was measured for GUUCCGUUGGCGUACUGGUGACGCGUCUCCCUCCUAAGGAGAAGACUGCGGGUUCGAGUCUUGUACGGGACG [A15C A20G C61U C62U A69G] ?
0.764

Any idea what yeast fitness was measured for GUUCCGUUGGCGUAAUGGUAACGCGUCUCCCUCCUAAGCAGAAGACUGCGGGUUCGACUCCCGUACGGAACG [G39C G58C] ?
0.83

Any idea what yeast fitness was measured for GUUCCGUUGGCGUAAUGGUAACGCGUCCCCCUCCUACGGAGAAGACCGCGGGUUCGAGUCCCGUACGGAACG [U28C A37C U47C] ?
0.697
